# Experimental System: Recombinant Human FGFR2 alpha (IIIc) Fc Chimera Protein (Homo sapiens, UniProt P21802)
# Construct: Fc (chimera); purchased R&D systems 712-FR-050
# Sequence (P21802 with tags, fused parts or gaps limits assumed): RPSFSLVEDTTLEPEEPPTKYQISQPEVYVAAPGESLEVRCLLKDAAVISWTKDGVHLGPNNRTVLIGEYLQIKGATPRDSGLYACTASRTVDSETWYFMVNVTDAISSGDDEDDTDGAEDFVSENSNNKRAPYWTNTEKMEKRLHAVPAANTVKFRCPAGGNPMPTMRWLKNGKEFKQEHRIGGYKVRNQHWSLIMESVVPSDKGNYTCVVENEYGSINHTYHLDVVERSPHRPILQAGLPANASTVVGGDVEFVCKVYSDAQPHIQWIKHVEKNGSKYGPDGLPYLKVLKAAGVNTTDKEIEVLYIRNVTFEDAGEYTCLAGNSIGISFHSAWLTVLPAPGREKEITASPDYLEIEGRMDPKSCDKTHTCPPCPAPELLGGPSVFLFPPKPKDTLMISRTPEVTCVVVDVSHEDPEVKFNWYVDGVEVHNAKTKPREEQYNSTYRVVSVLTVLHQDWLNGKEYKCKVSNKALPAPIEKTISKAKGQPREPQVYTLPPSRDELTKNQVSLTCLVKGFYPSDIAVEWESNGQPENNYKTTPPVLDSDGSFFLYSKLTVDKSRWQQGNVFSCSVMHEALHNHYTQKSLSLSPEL
# Measurement Description: ELISA binding affinity of enzymatically synthesized peptide to FGFR
# Conditions Used: ELISA luminescence signal at 10 nmol/L peptide, SEQ ID NO: 47 at 10 nmol/L standardized to 1; enzyme synthesis product
Bridge positions count the residues as written; N and C are the ends. Ends that are not written are not given here. COCH2 = acetyl group that carries the bridge
Measurement Kind: Evaluation result of binding affinity to FGFR

[
  {
    "Substance": "360 (YCEENYLDPEQYQYFIYFK(COCH2)M; thioether 2-19) [compound 360]",
    "Experimental System": "Recombinant Human FGFR2 alpha (IIIc) Fc Chimera Protein (Homo sapiens, UniProt P21802)",
    "Observed Measurement": "A (0.7 or more)"
  },
  {
    "Substance": "350 (YCEENMLDPEQYQYFIYFK(COCH2)Y; thioether 2-19) [compound 350]",
    "Experimental System": "Recombinant Human FGFR2 alpha (IIIc) Fc Chimera Protein (Homo sapiens, UniProt P21802)",
    "Observed Measurement": "A (0.7 or more)"
  },
  {
    "Substance": "48 (GCYWNEVQYYYLQQYKQ; Description of Artificial Sequence: Cyclic peptide) [compound 48]",
    "Experimental System": "Recombinant Human FGFR2 alpha (IIIc) Fc Chimera Protein (Homo sapiens, UniProt P21802)",
    "Observed Measurement": "A (0.7 or more)"
  }
]

These data points were gathered from patent US20260008815A1.
